# System: MDA-MB-468 breast
# PROTOCOL_DESCRIPTION: NCI tumour cell line growth inhibition, 48 h; in the data active = GI50 below about 0.43 µM; inactive = the rest
Can you answer with just one of these options? 1 for active, -1 for inactive

## Input Assay result, entry CN1CCN(CCOc2ccc(-c3cnc4c(-c5cccc(F)c5F)cnn4c3)cc2)CC1 — outcome?
## Output -1

## Input Assay result, entry O=C1/C(=C/c2ccc(Cl)cc2Cl)CN(S(=O)(=O)c2ccccc2)C/C1=C\c1ccc(Cl)cc1Cl — outcome?
## Output -1

====

// reported log10 TGI for each item listed
# Test system: MDA-MB-468 breast
# PROTOCOL_DESCRIPTION: NCI tumour cell line growth inhibition, 48 h
Use the decimal logarithm of TGI (µM).

{"COMPOUND": "CCOc1cc2ncc(C#N)c(Nc3ccc(F)c(Cl)c3)c2cc1NC(=O)CC1CCSS1 (stereo not drawn)", "READOUT_TYPE": "log10 TGI", "READOUT_VALUE": 0.07}

## Input I would be grateful if you could share the reported log10 TGI for O=C(CNc1nc(-c2ccccc2)cs1)Nc1ccc(Cl)cc1 .
## Output -0.06

## Input I would be grateful if you could share the reported log10 TGI for Cc1ccc(C2CC(c3cccc(Nc4ccncc4)c3)=NN2c2cc(Cl)cc(Cl)c2)cc1 (stereo not drawn) .
## Output 0.45

## Input I would be grateful if you could share the reported log10 TGI for COc1ccc2cnc(N)c(C#Cc3cc(C(=O)Nc4ccc(CN5CCN(C)CC5)c(C(F)(F)F)c4)cnc3C)c2c1 .
## Output 1.44

## Input I would be grateful if you could share the reported log10 TGI for CCOC(=O)C(=Cc1ccc(-c2ccccc2)cc1)C(=O)OCC .
## Output 1.00

## Input I would be grateful if you could share the reported log10 TGI for O=S(=O)(Nc1cccc(Cl)c1)c1ccc(-c2cnc(C3CC3)o2)cc1 .
## Output 1.09

## Input I would be grateful if you could share the reported log10 TGI for Cc1cc2nc(CS)[nH]c2cc1C .
## Output 1.48
